Provenance of the data: PubChem BioAssay

# inhibition per entry
experiment: growth suppression of yeast trafficking mutant, preliminary HTS, modulators of trafficking downstream of Golgi apparatus project, 1536-format plate, OD 615 nm (AID 637); conditions: yeast transport mutant growth, absorbance 615 nm, 18 h; hits give high values; also: test concentration not given here
Response body: numeric value in %, unit text excluded.

These recorded examples may help you get a feel for the data.
compound: CCOC(=O)Cc1c(C)c2c(O)cc(O)cc2oc1=O
unitAnnotation: %
measurement: 1.9
--
compound: Cn1c(SCc2cccc3ccccc23)nnc1-c1ccco1
unitAnnotation: %
measurement: -6.94
--
compound: CCCN1CCN(CCCNC(=O)C2CCCN(c3nc4ccc(OCC)cc4s3)C2)CC1 (centres undefined)
unitAnnotation: %
measurement: 0.83

The record that follows has no inhibition shown yet.
I have this compound here, O=C(CSc1nnnn1-c1ccc(Cl)cc1)NC(=O)Nc1ccc2c(c1)OCCO2 , and I need its recorded inhibition.
3.02
